System: L1210 leukemia ip in BDF1 mice, survival T/C
Assay: NCI In Vivo Anticancer Drug Screen. Data for tumor model L1210 Leukemia (intraperitoneal) in B6D2F1 (BDF1) mice
Conditions: endpoint: mean survival time; dose: 50.0 mg/kg/injection; schedule: Q01DX009 (ip); vehicle: saline; higher = longer survival
Inconclusive results and toxic doses are left out.
I'd appreciate it if you could supply T/C values for the items below.

Incoming: Which T/C is reported for this compound? CC(C)N(CCCOC(=O)c1ccc(N)cc1)C(C)C
Outgoing: 109 % of control

Incoming: Also, CCc1ccc(C2=C(O)C(=O)C(c3ccccc3)=C(O)C2=O)cc1 please.
Outgoing: 97 % of control

Incoming: Also, CCCn1nnc2ccccc2c1=Nc1ccccc1Cl please.
Outgoing: 97 % of control

Incoming: Also, CSC(N)=Nc1cccc(C)c1C please.
Outgoing: 100 % of control

Incoming: Also, CCCCCOC(=O)CCCc1ccc(N(CCCl)CCCl)cc1 please.
Outgoing: 123 % of control

Incoming: Also, O=C1Nc2c(Cl)cccc2C1=O please.
Outgoing: 94 % of control

Incoming: Also, CC(C)CCCC(C)C1CCC2C3CC=C4CC([S+](C)C)CCC4(C)C3CCC12C (configuration not stated) please.
Outgoing: 96 % of control

Incoming: Also, CCCCCCCCC/C(C)=N/NC(=O)c1ccc[n+](C)c1 please.
Outgoing: 93 % of control

Incoming: Also, COc1cc(N2CCOCC2)ccc1N please.
Outgoing: 95 % of control

Incoming: Also, COC(=O)c1c(C)ccc2c(O)c3c(cc12)C(=O)c1c2c(cc(O)c1C3=O)C1(C)OC(C)(O2)C(O)C(N(C)C)C1O (configuration not stated) please.
Outgoing: 96 % of control

Incoming: Also, O=[N+]([O-])c1ccc(C[n+]2ccc3ccccc3c2)cc1 please.
Outgoing: 101 % of control

Incoming: Also, CC[N+]1=NC2CCCC(C2)C1 (configuration not stated) please.
Outgoing: 96 % of control

====

Test system: L1210 leukemia ip in BDF1 mice, survival T/C
Test: NCI In Vivo Anticancer Drug Screen. Data for tumor model L1210 Leukemia (intraperitoneal) in B6D2F1 (BDF1) mice
Settings: endpoint: mean survival time; dose: 50.0 mg/kg/injection; schedule: Q01DX001 (ip); vehicle: saline; higher = longer survival
Inconclusive results and toxic doses are left out.
I'd appreciate it if you could supply T/C values for the items below.

Incoming: Which T/C is reported for this compound? COc1ccc(CN2CCCN(Cc3ccc(OC)cc3OC)C2c2cc(Br)ccc2O)c(OC)c1
Outgoing: 97 % of control

Incoming: Also, CSc1cc(C)n2nnnc2n1 please.
Outgoing: 100 % of control

Incoming: Also, O=C(CCCC(=O)N/N=C/c1ccccc1[N+](=O)[O-])N/N=C\c1ccccc1[N+](=O)[O-] please.
Outgoing: 112 % of control

Incoming: Also, COc1ccc(C2NC(=O)NC2=O)cc1OC (stereo unspecified) please.
Outgoing: 102 % of control

Incoming: Also, C[N+](C)(C)C(=O)c1ccccc1 please.
Outgoing: 104 % of control

Incoming: Also, c1ccc(C(NC(c2ccccc2)c2ccccc2)c2ccccc2)cc1 please.
Outgoing: 91 % of control

Incoming: Also, CC(C)(CO)N=Cc1ccccc1O.CC(C)(CO)N=Cc1ccccc1O.[Co] please.
Outgoing: 92 % of control

Incoming: Also, CNC(=O)OC(C)CN(c1ccccc1)c1ccccc1 (stereo unspecified) please.
Outgoing: 98 % of control

Incoming: Also, O=C(Cl)C1C2C=CC(C2)C1C(=O)Cl (stereo unspecified) please.
Outgoing: 108 % of control

Incoming: Also, C=CC(=O)c1c(O)cc(O)c2c1C(C)C(=O)O2 (stereo unspecified) please.
Outgoing: 104 % of control

Incoming: Also, O=C(C/C(=N/O)c1ccccc1)c1ccccc1 please.
Outgoing: 98 % of control

Incoming: Also, O=C(c1ccccc1)C1C(C(=O)c2ccccc2)C(c2ccccc2)N(c2ccccc2)C1c1ccccc1 (stereo unspecified) please.
Outgoing: 94 % of control

Incoming: Also, Nc1nc2c(c(=O)[nH]1)NC(CCNc1ccc(C(=O)NC(CCC(=O)O)C(=O)O)cc1)CN2 (stereo unspecified) please.
Outgoing: 113 % of control

Incoming: Also, CC(O)(CC(=O)O)c1ccc([N+](=O)[O-])cc1 (stereo unspecified) please.
Outgoing: 96 % of control

Incoming: Also, Cc1nnn2ccccc12 please.
Outgoing: 100 % of control

Incoming: Also, O=[N+]([O-])c1ccc(O)cc1/C=N/Nc1nnc(N/N=C/c2cc(O)ccc2[N+](=O)[O-])c2ccccc12 please.
Outgoing: 98 % of control

Incoming: Also, OC1(c2ccccc2)CC2CCCCC2c2ccccc21 (stereo unspecified) please.
Outgoing: 102 % of control

Incoming: Also, CS(=O)(=O)OCCN(CCOS(C)(=O)=O)c1cccc(C(F)(F)F)c1 please.
Outgoing: 124 % of control

Incoming: Also, O=C1CCCC(=O)NNC(=O)NCCCCCCNC(=O)NN1 please.
Outgoing: 102 % of control

Incoming: Also, N#Cc1ccccc1CCc1ccccc1 please.
Outgoing: 106 % of control

Incoming: Also, Nc1ccc(C(=O)O)cn1 please.
Outgoing: 96 % of control
